# System: MRSP (Methicillin-Resistant Staphylococcus pseudintermedius)
# assay-summary: MIC against selected strains of MRSP
# Assay type: cell-based
# Design: key: MIC in μM (visual, first well with no growth)
# measurement-parameters: MRSP strain 79882, Table 6
Assignment: determine reported MR 79882 for the given substances.
One number for each entry.

Study these solved cases before continuing.
substance="104 (KWCFRVCYFGICYRRCRD; Artificial Antimicrobial peptide) [compound 104]" measured_property="MR 79882" result_number=1.6
substance="106 (KWCWRVCYRGICYRRCRD; Artificial Antimicrobial peptide) [compound 106]" measured_property="MR 79882" result_number=0.8
substance="107 (KWCFRVCWRGICYRRCRD; Artificial Antimicrobial peptide) [compound 107]" measured_property="MR 79882" result_number=0.8

For each of the substances below, state MR 79882.
1. 98 (KWCVRVCYRGICYRRCRD; Artificial Antimicrobial peptide) [compound 98]
2. 110 (KWCFRVCYRGYCYRRCRD; Artificial Antimicrobial peptide) [compound 110]
3. 100 (KWCFWVCYRGICYRRCRD; Artificial Antimicrobial peptide) [compound 100]

Resp:
1. 0.8
2. 1.6
3. 1.6

// for each substance below, give its MR 79882
1. 117 (GWCFYVCYRGICYRRCRD; Artificial Antimicrobial peptide) [compound 117]
2. 30 (PWCFRVCYRGICYRRCR; Artificial Antimicrobial peptide) [compound 30]

Resp:
0.8
0.8

Record MR 79882 for all entries; do not skip any.
1. 112 (KWCFRVCYRGICYRRCKD; Artificial Antimicrobial peptide) [compound 112]
2. 114 (KWCFRVCYRGICYRRCRR; Artificial Antimicrobial peptide) [compound 114]
3. 103 (KWCFRVCKRGICYRRCRD; Artificial Antimicrobial peptide) [compound 103]
4. 31 (PWCFRVCYRGICYRRCRD; Artificial Antimicrobial peptide) [compound 31]

Resp:
1. 0.8
2. 1.6
3. 3.1
4. 1.6

Batch lookup, MR 79882 per entry.
1. 109 (KWCFRVCYRRICYRRCRD; Artificial Antimicrobial peptide) [compound 109]
2. 108 (KWCFRVCYGGICYRRCRD; Artificial Antimicrobial peptide) [compound 108]
3. 115 (GWCFRVCYRGICYRRCND; Artificial Antimicrobial peptide) [compound 115]
4. 97 (KRCFRVCYRGICYRRCRD; Artificial Antimicrobial peptide) [compound 97]
5. 116 (KWCFYVCYRGICYRRCND; Artificial Antimicrobial peptide) [compound 116]
6. 29 (PKWCFRVCYRGICYRRCRD; Artificial Antimicrobial peptide) [compound 29]

Resp:
1. 0.8
2. 3.1
3. 0.8
4. 1.6
5. 1.6
6. 0.8
